For each entry below, report its HEK-Blue IL-18: Fold over Background value.
Target: T1, IL-18 receptor (IL-18Rα/IL-18Rβ) overexpressed on HEK-Blue IL-18 cells (Homo sapiens (Human), UniProt Q13478 19-541; O95256 20-599)
T1 sequence 1: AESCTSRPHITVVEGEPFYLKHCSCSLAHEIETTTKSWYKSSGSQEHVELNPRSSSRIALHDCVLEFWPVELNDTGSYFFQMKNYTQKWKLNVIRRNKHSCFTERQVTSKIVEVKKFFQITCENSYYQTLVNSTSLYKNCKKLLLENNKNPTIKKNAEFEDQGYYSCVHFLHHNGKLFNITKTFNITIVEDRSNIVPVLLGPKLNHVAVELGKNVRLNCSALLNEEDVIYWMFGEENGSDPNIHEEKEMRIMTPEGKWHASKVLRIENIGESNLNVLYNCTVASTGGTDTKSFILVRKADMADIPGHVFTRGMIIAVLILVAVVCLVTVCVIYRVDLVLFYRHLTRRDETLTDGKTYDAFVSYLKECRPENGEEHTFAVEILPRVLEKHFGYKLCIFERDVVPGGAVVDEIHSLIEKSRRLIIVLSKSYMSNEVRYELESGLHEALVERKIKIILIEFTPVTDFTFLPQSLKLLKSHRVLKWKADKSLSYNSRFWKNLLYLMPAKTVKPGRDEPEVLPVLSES
T1 sequence 2: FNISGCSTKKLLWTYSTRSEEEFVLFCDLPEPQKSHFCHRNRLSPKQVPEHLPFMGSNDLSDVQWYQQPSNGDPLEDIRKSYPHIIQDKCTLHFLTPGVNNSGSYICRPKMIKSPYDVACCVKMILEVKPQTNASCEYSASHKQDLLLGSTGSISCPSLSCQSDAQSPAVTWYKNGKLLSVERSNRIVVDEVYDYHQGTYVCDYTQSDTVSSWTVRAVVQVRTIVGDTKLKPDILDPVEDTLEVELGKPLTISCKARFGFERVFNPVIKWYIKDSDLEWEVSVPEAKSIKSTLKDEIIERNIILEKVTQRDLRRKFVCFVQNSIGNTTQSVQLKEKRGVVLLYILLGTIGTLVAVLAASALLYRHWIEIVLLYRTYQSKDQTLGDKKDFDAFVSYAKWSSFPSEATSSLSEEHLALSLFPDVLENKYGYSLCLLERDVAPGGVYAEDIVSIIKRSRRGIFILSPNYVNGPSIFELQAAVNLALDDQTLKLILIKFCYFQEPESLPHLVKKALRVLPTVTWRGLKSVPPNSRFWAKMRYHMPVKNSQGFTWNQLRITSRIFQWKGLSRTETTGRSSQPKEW
Assay: cell-based or functional assay

q: Data request, read-out HEK-Blue IL-18: Fold over Background, for DGL302 (bispecific antibody, V domains shown) V domain 1: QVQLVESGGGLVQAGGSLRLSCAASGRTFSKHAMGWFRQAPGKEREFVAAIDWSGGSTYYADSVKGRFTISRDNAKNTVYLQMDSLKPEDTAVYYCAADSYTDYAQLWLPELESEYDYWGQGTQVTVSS V domain 2: QVQLVESGGGLVLPGESLRLSCVVSGTIDNINSMGWYRQAPGKQRELVAYITKLGSANYADSVEGRFTISRDNAKKTVHLQMNSLKPEDTAVYYCHANERGRITWAQGTQVTVSS
a: 5.2 fold

q: Request: DGL245 (bispecific antibody, V domains shown) V domain 1: EVQLVESGGGLVQPGGSLRLSCAASGFTLDYYTIGWFRQAPGKEREGVSCISSSGGSTNYADYVKGRFTISRDNAKNTVSLQMNSLKPEDTAVYYCAAESLIPLVETMCVMSVDDYDYWGQGTQVTVSS V domain 2: QLQLVESGGGLVQAGGSLRLSCAASRSITFSHNVMGWYRQAPGKQRELVASIGSGGSTNYVDSVKGRATISRDNAKKTVYLQMNSLKPEDTAVYYCGVVVGVYRGSLGQGTQVTVSS
a: 8.6 fold

q: Request: DGL317 (bispecific antibody, V domains shown) V domain 1: QVQLQESGGGLVQPGGSLRLSCAASGFIFSNWYMRWVRQAPGEGLEWVSSINSGGDDTDYADSVKGRFTISRDNAKGTLYLQMHSLKPEDTALYYCERGADRVRGQGTQVTVSS V domain 2: QVQLVESGGGLVQAGGSLRLSCAASGMFFSIGEMGWYRQAPGKQREMVARITRDGRINYADSVEGRFTASRNVAKTTLFLQMNSLKPEDTANYQCTVRRWDEEYWGKGTLVTVSD
a: 4.3 fold

q: Request: DGL256 (bispecific antibody, V domains shown) V domain 1: QVQLVESGGGLVQPGGSLRLSCTASGSDLHHYAIGWFRQAPGKEREGVSCISTTGAGTNYADSVKGRFTISRDNAKNTVYLQMDSLKPEETAVYYCAADGPSAIAGCVRTVASMYRYWGQGAQVTVSS V domain 2: QVQLVESGGGLVQPGGSLRLSCAASRITFSIYDMGWYRQAPGKQRELVASITRRGSTNYADSTKGRFTISRDNGKNTMYLQGNSLKPEDTAVYYCNARDILGRDYWGQGTQVTVSS
a: 1.7 fold
